Target: T1, PUF4 RNA-binding domain (Saccharomyces cerevisiae, UniProt P25339 537-888)
T1 sequence: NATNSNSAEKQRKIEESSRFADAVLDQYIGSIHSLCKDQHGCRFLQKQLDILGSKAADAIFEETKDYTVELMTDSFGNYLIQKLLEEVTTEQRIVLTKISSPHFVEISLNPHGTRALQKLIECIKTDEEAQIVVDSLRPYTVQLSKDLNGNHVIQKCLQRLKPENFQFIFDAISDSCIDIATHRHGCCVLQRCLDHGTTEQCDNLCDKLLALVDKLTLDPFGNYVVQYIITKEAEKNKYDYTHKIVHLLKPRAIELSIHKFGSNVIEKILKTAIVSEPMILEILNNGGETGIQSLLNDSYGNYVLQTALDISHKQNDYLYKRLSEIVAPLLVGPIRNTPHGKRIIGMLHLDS
Test: Mg; RNA-MaP; 20 mM Na-HEPES pH 7.4, 30 mM KOAc, 0.75 mM MgCl2, 0.1% Tween-20, 5% glycerol, 0.1 mg/mL BSA, 2 mM DTT; 25 C; 0.0125-409.6 nM protein
Conditions: tags: N-His6-TEV cleaved; C-SNAP kept, Cy3B-labelled; label: tethered on chip by stalled RNA polymerase
property: pKd
Keep it numeric: pKd is minus log10 of the concentration in mol/L.

Name the recorded pKd for Id_ii_S4_P5E.3_K5.2_C5.2_[C-2T]_[T-1A]_H5.2_A5.1_F5.1_T5.2_[A12T] (ssRNA) RNA: UUUGACAACUGAUCGUUCUUUCUUAUAUAUUAUUAUUUUCUUUCUCGAUCAGUUGUCUUU .
7.62

Name the recorded pKd for UCUCUUGUACACUUAUUAUUUCUCUU (ssRNA) [Id_ii_S1_P5E.4_K5.3_C5.2_[C-2G]_H5.3_A5.1_F5.1_T5.2_[A12T]] .
8.43
